# System: KB
# assay remarks: Cytotoxicity against human KB cells
# Type: functional, cell-based
pIC50: −log10 of the molar value.
Reported pIC50 values are given for each entry in this list.

compound: O=C1OCC2=C1C(c1ccc(Br)cc1)C1=C(N2)C(=O)c2ccccc2C1=O (configuration not stated)
inequality symbol: =
pIC50: 5.67

compound: O=C1OCC2=C1C(c1ccc3c(c1)C(=O)OC3)C1=C(N2)C(=O)c2ccccc2C1=O (configuration not stated)
inequality symbol: =
pIC50: 5.73

compound: O=C1OCC2=C1C(c1cccc(Br)c1)C1=C(N2)C(=O)c2ccccc2C1=O (configuration not stated)
inequality symbol: =
pIC50: 5.77

compound: Cc1ccc(C2C3=C(COC3=O)NC3=C2C(=O)c2ccccc2C3=O)cc1 (configuration not stated)
inequality symbol: <
pIC50: 5.60

compound: O=C1OCC2=C1C(c1ccc(C(F)(F)F)cc1)C1=C(N2)C(=O)c2ccccc2C1=O (configuration not stated)
inequality symbol: =
pIC50: 6.10

compound: O=C1OCC2=C1C(c1ccccc1F)C1=C(N2)C(=O)c2ccccc2C1=O (configuration not stated)
inequality symbol: =
pIC50: 5.92

compound: Cc1c2ccncc2c(C)c2c1[nH]c1ccccc12 [ELLIPTECINE]
inequality symbol: =
pIC50: 5.76

compound: O=C1OCC2=C1C(c1ccccc1)C1=C(N2)C(=O)c2ccccc2C1=O (configuration not stated)
inequality symbol: =
pIC50: 5.81

compound: O=C1OCC2=C1C(c1ccc3ccccc3c1)C1=C(N2)C(=O)c2ccccc2C1=O (configuration not stated)
inequality symbol: <
pIC50: 5.60

compound: O=C1OCC2=C1C(c1cccc([N+](=O)[O-])c1)C1=C(N2)C(=O)c2ccccc2C1=O (configuration not stated)
inequality symbol: =
pIC50: 5.94

compound: O=C1OCC2=C1C(c1ccc(F)cc1)C1=C(N2)C(=O)c2ccccc2C1=O (configuration not stated)
inequality symbol: =
pIC50: 5.67

compound: COc1ccc(C2C3=C(COC3=O)NC3=C2C(=O)c2ccccc2C3=O)cc1 (configuration not stated)
inequality symbol: =
pIC50: 6.06
